Experiment: Inhibition of inosine monophosphate dehydrogenase
Design: unit not given here
Checkbox rule: EC50 lower than 4 = 1.0; EC50 not lower than 4 = 0.0.

Examples from the recorded data:
compound_structure_string=Oc1c(Br)cc(Br)cc1Oc1c(O)c(Br)c(Br)c(Br)c1Br discrete_label=1.0
compound_structure_string=Oc1cc(Br)cc(Br)c1Oc1ccc(Br)cc1Br discrete_label=0.0
compound_structure_string=Oc1c(Br)cc(Br)cc1Oc1c(Br)cc(Br)c(Br)c1O discrete_label=0.0

Here is the next item to consider.
Answer whether the compound Oc1c(Oc2ccc(Br)cc2Br)cc(Br)c(Br)c1Br has EC50 strictly less than 4
0.0

----------
Experiment: Inhibition of tyrosine-protein kinase pp60v-src
Active and inactive are the calls of the source. The rule behind the calls is not given here.
Measured Attribute: Activity

compound_structure_string=COc1cc(Br)cc(Br)c1Oc1cc(Br)cc(Br)c1O measured_attribute=Activity reported_measurement=inactive
compound_structure_string=Oc1cc(Br)c(Br)c(Br)c1Oc1ccc(Br)cc1Br measured_attribute=Activity reported_measurement=inactive
compound_structure_string=Oc1cc(Br)cc(Br)c1Oc1ccc(Br)cc1Br measured_attribute=Activity reported_measurement=inactive

Data origin: ChEMBL document CHEMBL1159289
